Listed here: items and their measured melting point.

Previously resolved entries follow.
-- ask Quick one: melting point of CN1CC(C(=O)COC(=O)c2ccccc2)CC2c3cccc4[nH]cc(c34)CC21 (configuration not stated) ?
-- reply 163 to 165 °C

-- ask Looking for the measured melting point of COc1cc(C(=O)O)cc(OC)c1-c1ccc(C[C@H](NC(=O)c2c(Cl)cccc2Cl)C(=O)O)cc1 , can you help?
-- reply 277 to 278 °C

Okay, now this molecule:
-- ask Using the record for O=C(Nc1ccc(N2CC3CC3C2)nc1)c1cc2cc(F)ccc2n1Cc1cccc(F)c1 (configuration not stated) , report its melting point.
-- reply 193 to 195 °C

###

The entries below come with measured melting point values attached.

-- ask Looking for the measured melting point of Cc1ccc(Cn2ncnc2C(NS(=O)(=O)c2ccc(Cl)s2)C(C)C)cc1 (stereo unspecified) , can you help?
-- reply 124 to 125 °C

-- ask Recorded melting point of CCN1c2ncc(/C=C/c3ccncc3)cc2C(=O)N(C)c2ccc(Cl)nc21 , please.
-- reply 150 to 152 °C

-- ask Tell me the measured melting point of CSC1=Nc2cc(Cl)ccc2N(C)c2cscc21 , please.
-- reply 156 to 158 °C

-- ask Give its melting point value. Item: CCOC(=O)/C(=N\OCCN)c1csc(NC(c2ccccc2)(c2ccccc2)c2ccccc2)n1
-- reply 126 to 144 °C

-- ask Using the record for N=C(Nc1ccc(Cl)cc1)Nc1ncc(Cl)cc1OCc1c(F)cccc1Cl , report its melting point.
-- reply 132 to 133 °C

The record that follows has no melting point shown yet.
-- ask Item under review: Cn1c2c(c3ccccc31)CCN1C(=O)CCC21C (stereo unspecified) . Reported melting point?
-- reply 132 to 134 °C

###

MEASURED_ENDPOINT: melting point

Solved cases (4 shown):
-- ask Give its melting point value. Item: CCCc1ccc(C(=O)Nc2ccc3c(c2)nc(C)n3C)cc1
-- reply 214 to 218 °C

-- ask GET /values?readout=melting point&item= CC(=O)Nc1ccc2cccc(N3CCN(C)CC3)c2c1
-- reply 173 to 177 °C

-- ask Can you look up the measured melting point of O=C(O)c1ccc(CCCc2ccc(Br)cc2OCc2ccccc2)cc1 for me?
-- reply 141 to 142 °C

-- ask Please look up its melting point: CC(=O)N1CCC(n2c(=O)[nH]c3ccccc32)CC1
-- reply 212 to 214 °C

Attention now turns to another entry.
-- ask Quick check: melting point of CC(=O)c1cccc(-n2ccnc2)c1 ?
-- reply 69 to 71 °C

###

MEASURED_ENDPOINT: melting point

Previously resolved entries follow.
-- ask # melting point lookup, item Cc1cc(C#N)c(C)c(C(=O)Nc2ccn(C)n2)n1
-- reply 180 °C

-- ask Fill in the blank: the reported melting point of Cc1nc2cc(C(c3cccc(Cl)c3)n3ccnc3)ccc2[nH]1 (configuration not stated) is ____.
-- reply 117 °C

-- ask Would you kindly share the measured melting point for CCC(=O)Nc1cc(F)ccc1C(=O)O ?
-- reply 170 to 171 °C

# ---- query compound ----
-- ask Look up melting point for this compound: COc1c([N+](=O)[O-])cc(C=O)c(Cl)c1O
-- reply 130 °C

###

melting point for assorted compounds

Below: 10 compounds and their reported melting point.
-- ask Reported melting point, compound COC(=O)c1ccc2cc(CCc3cc4ccc(C(=O)OC)cc4o3)oc2c1 : ____
-- reply 175 to 177 °C

-- ask Using the record for COc1cc2ncnc(N3CCc4c(Br)ccc(C)c43)c2cc1OC , report its melting point.
-- reply 223 to 225 °C

-- ask Name the recorded melting point for C[Si](C)(C)C(CN)CC(=O)O (configuration not stated) .
-- reply 199 to 201 °C

-- ask Can you share its melting point? I mean this compound: CCOCc1nc2c(N)nc3cc(-c4ccccc4)cnc3c2n1CC(C)(C)O
-- reply 158 to 159 °C

-- ask // melting point lookup, key: CNCCCc1c[nH]c(-c2ccc(F)cc2)c1-c1ccncc1
-- reply 193 to 198 °C

-- ask What does the data say about its melting point? Entry: CC(=O)c1ccccc1CC1CNC(=O)O1 (configuration not stated)
-- reply 85 to 86 °C

-- ask Please give the measured melting point for this compound: Cn1cc(C2=C(c3cn(CCCNc4ccc([N+](=O)[O-])cn4)c4ccccc34)C(=O)NC2=O)c2ccccc21
-- reply 245 to 247 °C

-- ask Entry C[Si](C)(C)CCOCn1c(Br)nc(C#N)c1C#N : reported melting point = ?
-- reply 47 to 52 °C

-- ask Which melting point reading was recorded for the compound O=C(c1cccs1)c1cccnc1N1CCCC1=O ?
-- reply 148 to 150 °C

-- ask What value of measured melting point is listed for COc1c(C(C)(C)C)cc(C(C)=O)c(O)c1Br ?
-- reply 69 to 71 °C

More entries:
-- ask GET /values?readout=melting point&item= COC(=O)CCC#Cc1cc(F)c(Cl)cc1N
-- reply 67 to 68 °C

-- ask Returns the measured melting point for the input compound. Input: CCC(C)c1nn(-c2ccc(C(F)(F)F)cn2)cc1CCCOc1c(CC(=O)O)cccc1OC (configuration not stated)
-- reply 117 to 118 °C

-- ask May I ask what melting point has been recorded for CCn1nc(C#N)cc1-c1cn(C(C)C)c2cc(NS(C)(=O)=O)ccc12 ?
-- reply 144 to 145 °C

-- ask Please look up its melting point: CCOC(=O)c1cc(-c2ccccc2)n(-c2cccc(C(C)=O)c2)c1C
-- reply 102 to 104 °C

-- ask Entry COc1cc2c3c(c1)c(CCN1CCN(c4cc(C)ccn4)CC1)c(C)n3CCC2 has what melting point?
-- reply 104 °C

-- ask Tell me the measured melting point of CCCCc1oc2ccccc2c1C(=O)NCc1ccc2cc(OCC(=O)OC)ccc2c1 , please.
-- reply 142 to 143 °C

-- ask Which measured melting point value corresponds to CC(C)CCC1(c2ccccc2)CC=CC(=O)O1 (configuration not stated) ?
-- reply 134 to 136 °C

-- ask Which melting point reading was recorded for the compound CCOC(=O)C1(C(=O)NCc2ccccc2)CC(=O)N(Cc2ccccc2)C1 (configuration not stated) ?
-- reply 63 to 65 °C

###

Recorded melting point for the following molecules

The following molecules have reported results that may help.
-- ask Returns the measured melting point for the input molecule. Input: COC(=O)NCCOc1cc(Oc2ccc(C(F)(F)F)cc2Cl)ccc1[N+](=O)[O-]
-- reply 91 to 92 °C

-- ask Entry CCCc1c(C(=O)N(C)Cc2ccc3c(Br)c(OCC#N)ccc3c2)cnn1-c1ccccc1 : reported melting point = ?
-- reply 76 to 80 °C

-- ask Which value of melting point has been reported for C#Cc1cn(-c2c(Cl)cc(C(F)(F)F)cc2Cl)c2ccccc12 in the records?
-- reply 120 to 122 °C

-- ask Request the reported melting point associated with CCC(C)C(OCc1ccccc1)C1C(C(=O)NCC(=O)O)NC(C2CCCCC2)C1[N+](=O)[O-] (stereo unspecified)
-- reply 177 to 179 °C

-- ask For O=C1C(=O)c2ccccc2C2=C1SCC1(CCN(C(=O)c3ccncc3)CC1)O2 , what is its reported melting point?
-- reply 267 to 269 °C

---
-- ask Which melting point is listed for CCOC(=O)c1cn(-c2ncc(Cl)cc2Cl)cn1 ?
-- reply 114 to 115 °C

###

Item-by-item account of melting point

# annotated cases, reported melting point shown
-- ask What value of measured melting point is listed for O=C(Nc1nc2ccc(C(F)(F)F)cc2s1)c1c(F)cccc1F ?
-- reply 256 to 257 °C

-- ask Quick one: melting point of Cn1cccc1C(=NOCc1cccs1)C(=O)O ?
-- reply 70 to 71 °C

-- ask Looking for the measured melting point of OCc1cnc2ccc(Cl)cc2c1O , can you help?
-- reply > 300 °C

-- ask Returns the measured melting point for the input compound. Input: COc1cc(COc2nn(Cc3ccc(Oc4ccccc4)cc3)cc2C(=O)O)ccc1OCc1nc(-c2ccco2)oc1C
-- reply 153 to 154 °C

-- ask Look at this compound and give its reported melting point. Clc1ccc2c(c1)C(=C1CCN(CC3CCC3)CC1)c1ccccc1S2
-- reply 180 to 182 °C

Others:
-- ask What does the data say about its melting point? Entry: O=C(Nc1ccc(-n2nc(C(F)(F)F)cc2C(F)(F)F)cc1)Nc1ccc(Cl)cc1[N+](=O)[O-]
-- reply 225 to 227 °C

-- ask Name the reported melting point value associated with the compound COC(=O)C(CNC(C)=O)C1CCC(C(C)(C)C)CC1 (centres undefined)
-- reply 73 to 75 °C

###

Measured melting point by item

Reference set (3 entries):
-- ask Give the measured melting point of COC(=O)c1cccc(-c2ncc(O)cn2)c1 .
-- reply 219 to 223 °C

-- ask Quick check: melting point of CC1CC(=O)c2cc([N+](=O)[O-])cnc2C1 (stereo unspecified) ?
-- reply 64 to 67 °C

-- ask Endpoint output: melting point of C=CC(=O)OC1CC(C)(C)N(OC2CCCCC2)C(C)(C)C1 . Value?
-- reply 49 to 52 °C

Others:
-- ask Sample O=C1CCC(CCN2CCN(c3ccccn3)CC2)CC1 — what was its melting point?
-- reply 104 to 106 °C
